Values from patent US10508085B2

- System: human TDO (TDO-expressing HEK293 cells) (Homo sapiens, UniProt P48775)
- Construct: expressed in transfected cells
- Sequence (P48775 whole entry): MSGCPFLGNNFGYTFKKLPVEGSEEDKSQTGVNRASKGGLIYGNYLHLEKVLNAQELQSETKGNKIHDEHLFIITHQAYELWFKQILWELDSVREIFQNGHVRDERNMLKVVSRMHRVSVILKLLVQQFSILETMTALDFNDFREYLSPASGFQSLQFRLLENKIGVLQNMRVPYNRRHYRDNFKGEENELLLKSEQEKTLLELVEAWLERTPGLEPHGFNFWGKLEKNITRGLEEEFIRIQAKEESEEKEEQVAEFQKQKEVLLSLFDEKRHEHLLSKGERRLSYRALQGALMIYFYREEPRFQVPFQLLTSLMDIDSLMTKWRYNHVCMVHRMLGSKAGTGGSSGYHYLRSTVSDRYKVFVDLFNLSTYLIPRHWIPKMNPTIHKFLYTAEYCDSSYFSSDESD
- Test name: Cell based kynurenine assay, TDO-expressing HEK293 cell clones
- Run conditions: TDO-expressing HEK293 cells, 24 hours, geometric mean; read-out: HEK293 TDO Kynurenine GMean IC50 (μM) (Cellular Assay)

{"columns": ["Molecule", "IC50"],
 "data": [
  ["CC(C)C(=O)N1CCC(C(C)(C)[C@H](O)c2cc(Cl)cc3cn[nH]c23)CC1", "0.0001 to 10 µM"],
  ["CC(C)(C1CCN(C(=O)Nc2ccccc2C(F)(F)F)CC1)[C@@H](O)c1cc(Cl)cc2cn[nH]c12", "> 10 µM"],
  ["CC(C)(C1CCN(C(=O)CC2CC2)CC1)C(O)c1cc(Cl)cc2cn[nH]c12 (stereo not shown)", "0.0001 to 10 µM"],
  ["CC(C)(C1CCN(C(=O)NCCS(C)(=O)=O)CC1)C(O)c1cc(Cl)cc2cn[nH]c12 (stereo not shown)", "0.0001 to 10 µM"]
]}

* * *

Entries and their IC50
- System: human TDO (TDO-expressing HEK293 cells) (Homo sapiens)
- Construct: expressed in transfected cells
- Test name: Cell based kynurenine assay, TDO-expressing HEK293 cell clones
- Run conditions: TDO-expressing HEK293 cells, 24 hours incubation; geometric mean; read-out: HEK293 TDO Kynurenine GMean IC50 (μM) (Cellular Assay)

{"columns": ["Compound", "IC50"],
 "data": [
  ["CCOC(=O)NC(=O)N1CCC(C(C)(C)C(O)c2cc(Cl)cc3cn[nH]c23)CC1 (centres unmarked)", "0.0001 to 10 µM"],
  ["OC(c1cccc2cncn12)C1CCCCC1 (centres unmarked)", "> 10 µM"],
  ["OC(c1cc(Cl)cc2cn[nH]c12)C1(C2CC2)CC1 (centres unmarked)", "0.0001 to 10 µM"],
  ["CC(C)(C1CCC1)C(O)c1cc(Cl)cc2cn[nH]c12 (centres unmarked)", "0.0001 to 10 µM"],
  ["Cc1ccc(NC(=O)N2CCC(C(C)(C)C(O)c3cc(Cl)cc4cn[nH]c34)CC2)cc1Cl (centres unmarked)", "0.0001 to 10 µM"]
]}

* * *

- System: human TDO (TDO-expressing HEK293 cells) (Homo sapiens)
- Construct: expressed in transfected cells
- Test name: Cell based kynurenine assay, TDO-expressing HEK293 cell clones
- Run conditions: TDO-expressing HEK293 cells, 24 hours incubation; geometric mean; read-out: HEK293 TDO Kynurenine GMean IC50 (μM) (Cellular Assay)
Assay metric: IC50

{"columns": ["Compound", "Assay metric", "Reported result"],
 "data": [
  ["CC(C)(C)OC(=O)N1CCC(C(C)(C)[C@H](O)c2cc(Cl)cc3cn[nH]c23)CC1 [Compound P-0337]", "IC50", "0.0001 to 10 µM"],
  ["O=C(c1c2c(cc3cn[nH]c13)CC2)C(F)(F)C1CCOCC1 [Compound P-0275]", "IC50", "0.0001 to 10 µM"],
  ["OC(c1cc(Cl)cc2cn[nH]c12)C1(C(F)(F)F)CC1 (stereo not shown) [Compound P-0119]", "IC50", "0.0001 to 10 µM"],
  ["OC(c1cccc2cncn12)C1CCCCCCC1 (stereo not shown) [Compound P-0063]", "IC50", "> 10 µM"],
  ["CC(C)(C1CCN(S(C)(=O)=O)CC1)C(O)c1c(F)ccc2cn[nH]c12 (stereo not shown) [Compound P-0284]", "IC50", "0.0001 to 10 µM"],
  ["Cc1ccc2cn[nH]c2c1C(O)C(C)(C)C1CCOCC1 (stereo not shown) [Compound P-0234]", "IC50", "0.0001 to 10 µM"],
  ["CC1(C(O)c2cc(Cl)cc3cn[nH]c23)CCCC1 (stereo not shown) [Compound P-0021]", "IC50", "0.0001 to 10 µM"],
  ["CS(=O)(=O)N1CC2CCC(C1)C2CC(O)c1cc(Cl)cc2cn[nH]c12 (stereo not shown) [Compound P-0282]", "IC50", "0.0001 to 10 µM"],
  ["CC1(C)CC(O)(c2cc(Cl)cc3cn[nH]c23)CCN1S(C)(=O)=O (stereo not shown) [Compound P-0046]", "IC50", "> 10 µM"],
  ["CC(C)(C(O)c1cc(Cl)cc2cn[nH]c12)[C@H]1C[C@H]2CC[C@@H](C1)N2S(C)(=O)=O (stereo partly shown) [Compound P-0271]", "IC50", "0.0001 to 10 µM"],
  ["CC1(C(O)c2cc(Cl)cc3cn[nH]c23)CC2CC2C1 (stereo not shown) [Compound P-0228]", "IC50", "0.0001 to 10 µM"],
  ["CC1(C(O)c2c(Cl)c(Cl)cc3cn[nH]c23)CCCCC1 (stereo not shown) [Compound P-0287]", "IC50", "> 10 µM"],
  ["CCC(=O)N1CCC(C(C)(C)C(O)c2cc(Cl)cc3cn[nH]c23)CC1 (stereo not shown) [Compound P-0311]", "IC50", "0.0001 to 10 µM"],
  ["O=C(O)C1CCC(C(O)c2cc(Cl)cc3cn[nH]c23)CC1 (stereo not shown) [Compound P-0219]", "IC50", "> 10 µM"],
  ["CCC(=O)N1CCC(C(F)(F)C(O)c2cc(Cl)cc3cn[nH]c23)CC1 (stereo not shown) [Compound P-0147]", "IC50", "0.0001 to 10 µM"],
  ["CCCS(=O)(=O)N1CCC(C(C)(C)C(O)c2cc(Cl)cc3cn[nH]c23)CC1 (stereo not shown) [Compound P-0305]", "IC50", "0.0001 to 10 µM"],
  ["CS(=O)(=O)N1CCC(C(O)c2cc(Cl)cc3cn[nH]c23)CC1 (stereo not shown) [Compound P-0283]", "IC50", "0.0001 to 10 µM"],
  ["CC1(C(O)c2cc(Cl)cc3[nH]ncc23)CCCCC1 (stereo not shown) [Compound P-0145]", "IC50", "0.0001 to 10 µM"],
  ["CC(=O)N1C[C@H]2CC[C@@H](C1)[C@H]2C(F)(F)C(O)c1c(F)c(Cl)cc2cn[nH]c12 (stereo partly shown) [Compound P-0138]", "IC50", "0.0001 to 10 µM"],
  ["CCC(CC)C(O)c1cc(Cl)cc2cn[nH]c12 (stereo not shown) [Compound P-0268]", "IC50", "0.0001 to 10 µM"],
  ["Cc1cc(C2(O)CC3(CCC3)C2)c2[nH]ncc2c1 [Compound P-0030]", "IC50", "> 10 µM"],
  ["CC(=O)N1CCC(C(C)(C)C(O)c2cc(Cl)cc3[nH]ncc23)CC1 (stereo not shown) [Compound P-0172]", "IC50", "0.0001 to 10 µM"],
  ["CC1(C(O)c2cc(Cl)cc3cn[nH]c23)CC(F)(F)C1 (stereo not shown) [Compound P-0018]", "IC50", "0.0001 to 10 µM"],
  ["OC1(c2cc(Cl)cc3cn[nH]c23)CC2(C1)C1CC3CC(C1)CC2C3 (stereo not shown) [Compound P-0113]", "IC50", "0.0001 to 10 µM"],
  ["OC(CCC1CCCCC1)c1cc(Cl)cc2cn[nH]c12 (stereo not shown) [Compound P-0009]", "IC50", "> 10 µM"],
  ["CC(C)(C1CCN(C(=O)NC(=O)c2ccccc2)CC1)C(O)c1cc(Cl)cc2cn[nH]c12 (stereo not shown) [Compound P-0385]", "IC50", "0.0001 to 10 µM"],
  ["CNC(=O)N1CCC(C(C)(C)C(O)c2cc(Cl)cc3cn[nH]c23)CC1 (stereo not shown) [Compound P-0314]", "IC50", "0.0001 to 10 µM"],
  ["O=C(Nc1ccccc1)N1CCC(C(F)(F)C(O)c2cc(Cl)cc3cn[nH]c23)CC1 (stereo not shown) [Compound P-0150]", "IC50", "0.0001 to 10 µM"],
  ["Cc1ccc2cn[nH]c2c1C(O)C12CC3CC(CC(C3)C1)C2 (stereo not shown) [Compound P-0037]", "IC50", "> 10 µM"],
  ["OC(c1c(Cl)c(Cl)cc2cn[nH]c12)C1(C2CCCCC2)CC1 (stereo not shown) [Compound P-0238]", "IC50", "0.0001 to 10 µM"],
  ["CC(C)(C1CCN(C(N)=O)CC1)C(O)c1cc(Cl)cc2cn[nH]c12 (stereo not shown) [Compound P-0325]", "IC50", "0.0001 to 10 µM"],
  ["CC(C)(C1CCN(C(=O)Nc2cc(F)ccc2F)CC1)C(O)c1cc(Cl)cc2cn[nH]c12 (stereo not shown) [Compound P-0404]", "IC50", "0.0001 to 10 µM"],
  ["CC(C)(C1CCN(C(=O)N2CCOCC2)CC1)C(O)c1cc(Cl)cc2cn[nH]c12 (stereo not shown) [Compound P-0391]", "IC50", "0.0001 to 10 µM"],
  ["CC(C)(CCC#N)C(O)c1cc(Cl)cc2cn[nH]c12 (stereo not shown) [Compound P-0213]", "IC50", "0.0001 to 10 µM"]
]}
